B1: LINE1-full (parent)
chain: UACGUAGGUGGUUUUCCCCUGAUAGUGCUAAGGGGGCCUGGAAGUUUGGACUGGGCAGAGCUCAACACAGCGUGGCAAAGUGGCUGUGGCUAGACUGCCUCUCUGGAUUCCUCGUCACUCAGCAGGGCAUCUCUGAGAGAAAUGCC

- Variants of: B1
- Assay details: self-cleavage, relative activity (ratio to wild type); higher = more cleavage; in vitro, sequencing; the parent is a self-cleaving ribozyme
Measure name: self-cleavage
Field format: numeric only.

Task: Give self-cleavage for UACGUAGGUGGUUUUCCCCUGAUAGUGCUAAGGGGGCCUGGAAGUUUGGACUGGGCAGAGCUCAACACAGCGUGGCAAAGUGGCUGUGGCUAGACUACCUCUCUGGAUUCCUCGUCACUCAGCAGGGCACCUCUGAGAGAAAUGCC [G97A U130C]
Result: 0.19

Task: Specify measured self-cleavage for UACGUAGGUGGUUUUCCCCUGAUAGCGCUAUGGGGGCCUGGAAGUUUGGACUGGGCAGAGCUCAACACAGCGUGGCAAAGUGGCUGUGGCUAGACUGCCUCUCUGGAUUCCUCGUCACUCAGCAGGGCAUCUCUGAGAGAAAUGCC [U26C A31U] .
Result: 1.05

Task: Specify measured self-cleavage for UACGUAGGUGGUUUUCCCCUGAUAGUGCUAAGGGGGCCUGGAAGUUUGGACUGGGCAGAGCACAACACAGCGUGGCAAAGUGGCUGUGGCUAGACUGCCUCUCUGGAUUCCUCGUCACUCUGCAGGGCAUCUCUGAGAGAAAUGCC [U62A A121U] .
Result: 0.06

Task: Determine its reported self-cleavage: UACGUAGGUGGUUUUCCCCUGAUAGUGCUAAGGGGGCCUGGAAGUUUGGACUGGGCAGAGCUCAACACAGCGUGACAAAGUGACUGUGGCUAGACUGCCUCUCUGGAUUCCUCGUCACUCAGCAGGGCAUCUCUGAGAGAAAUGCC [G75A G83A]
Result: 0.76

Task: Output measured self-cleavage for this item: UACGUAGGUGAUUUUCCCCUGAUAGUGCUAAGGGGGCCUGGAAGUUUGGACUGGGCAGAGCUCAACACAGCGUGGCAAAGUGGCUGUGGCUAGACUGCCUCUCUGGAUUCCUCGUCACUUAGCAGGGCAUCUCUGAGAGAAAUGCC [G11A C120U]
Result: 1.35

Task: Find the measured self-cleavage of UGCGUAGGUGGUUUUCCCCUGAUAGUGCUAAGGGGGCCUGGAAGUUUGGACUGGGCAGAGCUCAACACAGCGUGGCAAAGUGGCUGUGGCUAGACUGCCUCUCUGGAUUCCUCGUCACUCGGCAGGGCAUCUCUGAGAGAAAUGCC [A2G A121G] and report it.
Result: 1.44

Task: Answer with the recorded self-cleavage of UACGUAGGUGGUUUUUCCCUGAUAGUGCUAAGGGGGCCUGGAAGUUUGGACUGGGCAGAGCUCAACACAGCGUGGCAAAGUGGCUGUGGCUAGACUGCCUCUCUGGAUUCCUCGUCACUCAGCGGGGCAUCUCUGAGAGAAAUGCC [C16U A124G] only.
Result: 0.58

Task: Provide only the value of recorded self-cleavage for UACGUAGGUGGUUUUCCCCUGAUAGUGCUAAGGGGGCCUGGAAGUUUGGACUGGGCAGAGCUCAACACAGCGUGGCAAAGUGGCUGUGGCUAGACUGCCUCUCUGGAUUCCUCUUCACUCAGCAGGGCAUCUCUGAGAGAUAUGCC [G114U A141U]
Result: 1.61

Task: Return value of self-cleavage for input UACGUAGGUGGUUUUCCCCUGAUAGUGCUAAGGGGGCCUGGAAGGUUGGACUGGGCAGGGCUCAACACAGCGUGGCAAAGUGGCUGUGGCUAGACUGCCUCUCUGGAUUCCUCGUCACUCAGCAGGGCAUCUCUGAGAGAAAUGCC [U45G A59G] , no commentary.
Result: 0

Task: Give the reported value of self-cleavage for this record: UACGUAGGUGGUUUGCCCCUGAUAGUGCUAAGGGGGCCUGGAAGUUUGGACUGGGCAGAGCUCAACACAGCGUGGCAUAGUGGCUGUGGCUAGACUGCCUCUCUGGAUUCCUCGUCACUCAGCAGGGCAUCUCUGAGAGAAAUGCC [U15G A78U]
Result: 2.03

Task: Consider the variant UACGUAGGUGGUUUUCCCCUGAUAGUGCUAAGGGGGCCUGGAAGUUUGGACUGGGCAGAGCUCAACACAGCGUGGCAAAGUGGCUGUGGCUAGACUGCCUCUCUGGAUUCCUCGUCACUUAGCAGGGCAUCUCUGAGAGGAAUGCC [C120U A140G] and give its recorded self-cleavage.
Result: 1.1
